- TESTED TARGET: recombinant human Nav1.8 (Homo sapiens, UniProt Q9Y5Y9)
- Construct: host or cells: HEK293
- Sequence (Q9Y5Y9 whole entry): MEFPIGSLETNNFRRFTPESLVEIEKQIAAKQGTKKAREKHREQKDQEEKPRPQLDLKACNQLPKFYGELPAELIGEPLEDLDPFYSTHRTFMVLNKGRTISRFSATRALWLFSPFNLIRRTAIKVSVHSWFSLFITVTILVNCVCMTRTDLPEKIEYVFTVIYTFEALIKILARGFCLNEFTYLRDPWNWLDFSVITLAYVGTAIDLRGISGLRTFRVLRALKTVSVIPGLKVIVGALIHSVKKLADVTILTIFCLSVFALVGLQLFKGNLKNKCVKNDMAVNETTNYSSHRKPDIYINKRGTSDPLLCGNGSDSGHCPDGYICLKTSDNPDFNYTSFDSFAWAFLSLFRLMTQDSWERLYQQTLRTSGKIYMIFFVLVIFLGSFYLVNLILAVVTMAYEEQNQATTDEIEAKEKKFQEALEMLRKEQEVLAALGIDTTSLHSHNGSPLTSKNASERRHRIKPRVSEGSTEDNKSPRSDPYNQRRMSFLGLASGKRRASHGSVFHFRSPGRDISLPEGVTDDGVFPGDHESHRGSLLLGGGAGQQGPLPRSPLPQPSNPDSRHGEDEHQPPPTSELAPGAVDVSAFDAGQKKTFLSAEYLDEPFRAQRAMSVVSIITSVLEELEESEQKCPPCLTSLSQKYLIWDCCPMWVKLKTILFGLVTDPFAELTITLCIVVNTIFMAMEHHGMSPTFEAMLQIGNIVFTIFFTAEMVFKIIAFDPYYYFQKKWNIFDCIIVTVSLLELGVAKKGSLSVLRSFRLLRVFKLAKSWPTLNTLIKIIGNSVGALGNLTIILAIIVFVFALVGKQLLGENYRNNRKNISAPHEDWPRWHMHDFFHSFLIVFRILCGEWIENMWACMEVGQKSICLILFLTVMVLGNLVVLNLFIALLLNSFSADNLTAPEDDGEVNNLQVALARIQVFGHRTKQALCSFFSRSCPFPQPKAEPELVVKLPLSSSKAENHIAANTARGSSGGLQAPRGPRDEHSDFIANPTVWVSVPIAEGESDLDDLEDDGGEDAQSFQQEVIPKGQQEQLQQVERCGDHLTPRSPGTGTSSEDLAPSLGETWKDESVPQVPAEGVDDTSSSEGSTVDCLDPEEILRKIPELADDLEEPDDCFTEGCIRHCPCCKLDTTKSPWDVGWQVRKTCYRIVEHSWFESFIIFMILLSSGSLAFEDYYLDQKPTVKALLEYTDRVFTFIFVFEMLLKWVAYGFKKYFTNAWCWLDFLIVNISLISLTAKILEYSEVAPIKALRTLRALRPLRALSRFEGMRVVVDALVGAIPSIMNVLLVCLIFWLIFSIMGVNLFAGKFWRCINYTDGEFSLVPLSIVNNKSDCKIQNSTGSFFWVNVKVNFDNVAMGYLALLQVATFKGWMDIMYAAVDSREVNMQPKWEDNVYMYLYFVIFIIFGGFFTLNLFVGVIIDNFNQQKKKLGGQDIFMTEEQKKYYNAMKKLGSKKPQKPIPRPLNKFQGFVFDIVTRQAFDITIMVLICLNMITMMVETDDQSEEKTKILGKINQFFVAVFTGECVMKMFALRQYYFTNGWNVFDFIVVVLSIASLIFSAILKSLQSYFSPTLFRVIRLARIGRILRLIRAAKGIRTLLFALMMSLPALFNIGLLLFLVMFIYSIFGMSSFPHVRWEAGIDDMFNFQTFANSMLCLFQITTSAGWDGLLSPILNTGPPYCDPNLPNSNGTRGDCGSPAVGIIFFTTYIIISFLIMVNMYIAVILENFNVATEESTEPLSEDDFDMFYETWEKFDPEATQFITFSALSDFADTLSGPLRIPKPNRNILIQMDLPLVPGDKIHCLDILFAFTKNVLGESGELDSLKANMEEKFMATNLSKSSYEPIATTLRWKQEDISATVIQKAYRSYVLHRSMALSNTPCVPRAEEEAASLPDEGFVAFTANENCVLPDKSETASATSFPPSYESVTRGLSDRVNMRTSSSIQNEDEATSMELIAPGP
- MEASUREMENT DESCRIPTION: FRET-based membrane potential assay, Nav1.8
- Type: cell-based
- EXPERIMENTAL CONDITIONS: HEK293 cells expressing recombinant human Nav1.8; veratridine + scorpion venom depolarization
pIC50 by entry:
The value called pIC50 is obtained by taking minus log10 of the concentration in mol/L.

COMPOUND: O=C1[C@H]2[C@H](CCN2C(=O)[C@@H]2CCOC2)CN1c1cccc2c1cnn2-c1ccccc1F (mixture of isomers) [Example 3]
MEASUREMENT KIND: pIC50
REPORTED: 5.27

Turning now to a further record.
Per the records, this compound ( CC(C)(O)CC(=O)N1CC[C@H]2CN(c3cccc4c3cnn4-c3ccccc3F)C(=O)[C@H]21 (single isomer, unassigned) [Example 2] ) has pIC50 equal to 5.62

Source of measurements: patent US9682985B2
